biological target: B95-8 EBNA1 DBD (Epstein-Barr virus (strain B95-8), UniProt P03211 459-607); experiment: SPR; 1 mM Mg2+; range given for both proteins, exact value in Fig 2B; SPR (Biacore T200, SA chip): 20 mM Tris pH 8.0, 250 mM NaCl, 5 mM beta-mercaptoethanol, 1 mM MgCl2, EBNA1 0-200 nM; temperature not stated. Crystals: 0.2 M ammonium acetate, 0.15 M Mg acetate, 0.05 M Hepes pH 7.0, 5% PEG 4000; conditions: protein: recombinant; tags: His6-SUMO tag, cleaved; chain copies: 2; label: 5' biotin; self-complementary 18-mer
Sequence (P03211 459-607): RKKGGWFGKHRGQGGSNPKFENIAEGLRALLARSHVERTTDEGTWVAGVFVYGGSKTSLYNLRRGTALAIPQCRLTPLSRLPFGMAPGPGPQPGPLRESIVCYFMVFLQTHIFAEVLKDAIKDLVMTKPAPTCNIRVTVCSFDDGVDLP
Recorded endpoint: Kd

Entry under test: FR single EBNA1 dimer site (SPR) (dsDNA) DNA 1: GGGAAGCATATGCTTCCC DNA 2: GGGAAGCATATGCTTCCC . Its Kd was ~16.5 nM

All values here come from paper PMC5352318.
